tested on: S. Typhimurium PhoP-regulated promoter GFP reporter, 4 h; assay: inhibitors of PhoP regulon expression, primary screen, Salmonella Typhimurium, GFP reporter (AID 1863)
pIC50: −log10 of the molar value.
Kindly return yes (1) if reported pIC50 is no lower than 4; return no (0) if it is lower.

| COMPOUND | GROUP |
| --- | --- |
| C[C@H]1c2cccc(O)c2C(O)=C2C(=O)[C@]3(O)C(O)=C(C(N)=O)C(=O)[C@@H](N(C)C)C3[C@@H](O)C21 (some centres undefined) | yes (1) |
| C=C1c2cccc(O)c2C(O)=C2C(=O)[C@]3(O)C(O)=C(C(N)=O)C(=O)[C@@H](N(C)C)[C@@H]3[C@@H](O)[C@H]12 | yes (1) |
| CC[n+]1c(/C=C/c2ccc(N(C)C)cc2)ccc2ccccc21 | yes (1) |
| C=CCNc1ncnc2c1[nH]c1ccc(Cl)cc12 | no (0) |
| C[C@H]1c2cccc(O)c2C(O)=C2C(=O)C3(O)C(O)=C(C(N)=O)C(=O)[C@@H](N(C)C)[C@@H]3[C@@H](O)[C@@H]21 (some centres undefined) | yes (1) |

====

test system: S. Typhimurium PhoP-regulated promoter GFP reporter, 4 h; test: inhibitors of PhoP regulon expression, primary screen, Salmonella Typhimurium, GFP reporter (AID 1863)
pIC50: −log10 of the molar value.

| COMPOUND | pIC50 |
| --- | --- |
| Cc1cc(C)c(NC(=O)c2cn3c4c(c(N5CCN(C)CC5)c(F)cc4c2=O)OCC3C)c(C)c1 (centres undefined) | 4.69 |
| CC(Cc1ccccc1)NCc1ccccc1O (centres undefined) | 4.39 |
| Nc1nc2ccccc2n1CCOc1ccccc1Cl | 3.86 |
| C#CCOCCOCCOCCNc1nc(N2CCN(C(=O)CCCCCCCCCCNC(=O)[C@H]([C@@H](C)CC)n3cc(CCCCN=C(N)N)nn3)CC2)nc(N2CCN(C(=O)CCCCCCCCCCNC(=O)[C@H]([C@@H](C)CC)n3cc(CCCCN=C(N)N)nn3)CC2)n1 | 4.10 |
| CCCCCc1ccc(OCCC[n+]2ccccc2)c(CCCCC)c1 | 4.08 |
| C#CCOCCOCCOCCNc1nc(N2CCN(C(=O)CCCCCCCCCCNC(=O)[C@H]([C@@H](C)CC)n3cc(CCCCN=C(N)N)nn3)CC2)nc(N2CCN(C(=O)CCCCCCCCCCNC(=O)[C@H](CCCN=C(N)N)n3cc(C[C@@H](C)CC)nn3)CC2)n1 | 4.12 |
| CN1CCN(CCCN2c3ccccc3Sc3ccc(Cl)cc32)CC1 | 4.15 |
| CCCCCCNC(=O)c1cn(CC)c2cc(N3CCN(C)CC3)c(F)cc2c1=O | 4.64 |
| O=C(N[C@H](CO)[C@H](O)c1ccc([N+](=O)[O-])cc1)C(Cl)Cl | 5.02 |

====

tested on: S. Typhimurium PhoP-regulated promoter GFP reporter, 4 h; assay: inhibitors of PhoP regulon expression, primary screen, Salmonella Typhimurium, GFP reporter (AID 1863)

| COMPOUND | IC50 |
| --- | --- |
| CCn1cc(C(=O)O)c(=O)c2cc(F)c(N3CCN(C(=S)NC(=O)c4ccccc4F)CC3)cc21 | 28.5 µM |
| O=[N+]([O-])c1cc(/C=N/Nc2nc3ccccc3[nH]2)c(O)cc1O | 24.3 µM |
| CO[C@H]1/C=C/O[C@@]2(C)Oc3c(C)c(O)c4c(O)c(c(C=NN5CCN(C)CC5)c(O)c4c3C2=O)NC(=O)/C(C)=C\C=C\[C@H](C)[C@H](O)[C@@H](C)[C@@H](O)[C@@H](C)[C@H](OC(C)=O)[C@@H]1C | 7.42 µM |
| Cc1c2ccncc2c(C)c2c1[nH]c1ccccc12 | 26.3 µM |
| CCN1/C(=C/C=C/C=C/c2sc3ccccc3[n+]2CC)Sc2ccccc21 | 18.6 µM |
| O=[N+]([O-])c1ccc(O)c(/C=N/Nc2ccccn2)c1 | 17 µM |
| CNC[C@H](CC1CCCCC1)NC[C@H](Cc1ccccc1)NCCC12CC3CC(CC(C3)C1)C2 | 18.1 µM |
| O=C(Oc1c(Cl)cc(Cl)c2cccnc12)c1ccco1 | 46.5 µM |
| CCn1cc(C(=O)NCCCO)c(=O)c2cc(F)c(N3CCN(C)CC3)cc21 | 25.5 µM |
| O=C1NN(c2ccccc2)C(=O)/C1=C\c1coc2ccc(O)cc2c1=O | 132 µM |
| COc1c(N2CCNC(C)C2)c(F)cc2c(=O)c(C(=O)O)cn(C3CC3)c12 (stereo unspecified) | 0.58 µM |
| CCN1CCN(C(c2ccc(C(F)(F)F)cc2)c2ccc3cccnc3c2O)CC1 (stereo unspecified) | 55.1 µM |
| CCn1cc(C(=O)O)c(=O)c2cc(F)c(N3CCN(C(=S)NC(=O)c4cccc(C)c4)CC3)cc21 | 14.7 µM |
| Oc1c(Cl)cc(Cl)c2cccnc12 | 27.9 µM |
| CCOc1ccc(Nc2c3ccccc3nc3ccccc23)cc1 | 77.7 µM |
| CSCC[C@H](NC(=O)Nc1ccc(C)cc1)C(=O)O | 123 µM |
| Oc1ccc(CN2CCN(Cc3ccccc3)CC2)c2cccnc12 | 61.5 µM |
| CCn1cc(C(=O)O)c(=O)c2cc(F)c(N3CCN(C)CC3)cc21 | 1 µM |
| Clc1ccc(CNCc2cccs2)cc1Cl | 73.3 µM |
| Cc1ccc(C(C[N+](=O)[O-])c2c(N)n(C)c(=O)n(C)c2=O)cc1 (stereo unspecified) | 62.3 µM |
| CCn1cc(C(=O)O)c(=O)c2cc(F)c(N3CCN(C(=S)NC(=O)c4ccccc4)CC3)cc21 | 10.5 µM |
